src = paper PMC4183699

Biological target: Rbt5 (Candida albicans)
Sequence (Q59UT4 23-219): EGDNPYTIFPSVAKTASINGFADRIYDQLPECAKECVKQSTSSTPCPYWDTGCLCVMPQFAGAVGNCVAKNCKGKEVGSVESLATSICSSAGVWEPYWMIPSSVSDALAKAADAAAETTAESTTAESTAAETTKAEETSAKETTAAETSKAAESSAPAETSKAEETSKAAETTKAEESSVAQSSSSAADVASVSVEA
property.measured: Kd (µM)
Please give a number only; it is taken to be in µM.

For Rbt5 (Candida albicans), provide Kd of C=CC1=C(C)C2=Cc3c(C=C)c(C)c4[n]3[Fe]([Cl])[n]3c(c(C)c(CCC(=O)O)c3=CC3=NC(=C4)C(C)=C3CCC(=O)O)=CC1=N2 [hemin] please.
5.4

----------
Target: Pga7 (Candida albicans, UniProt Q59UT5)
Construct: Pga7_18–195 (C-terminal Myc-6×His, expressed in Pichia pastoris)
Sequence (Q59UT5 18-195): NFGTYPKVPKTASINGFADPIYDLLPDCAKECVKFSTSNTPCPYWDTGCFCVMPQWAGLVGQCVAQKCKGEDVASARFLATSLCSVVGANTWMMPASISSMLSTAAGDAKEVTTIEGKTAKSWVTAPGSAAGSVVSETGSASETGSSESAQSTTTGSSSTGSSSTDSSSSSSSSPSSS
Assay: ITC; also Soret-shift UV-Vis titration ([…]), 1H NMR, hemin-agarose pull-down
Assay type: binding
property.measured: Kd (µM)
All answers are understood in µM, so give the number only.

# get_value(readout='Kd', item= `C=CC1=C(C)C2=Cc3c(C=C)c(C)c4[n]3[Fe]([Cl])[n]3c(c(C)c(CCC(=O)O)c3=CC3=NC(=C4)C(C)=C3CCC(=O)O)=CC1=N2` )
0.065
